Just for reference, patent US20250136558A1 is where these values come from.

What pIC50 was measured for each of the following?
Tested on: K-562
Assay: Proliferation inhibition (CellTiter-Glo) in K-562 cells
Format: cell-based
Conditions: Homo sapiens, K562, 96 h, K-562 CML cells, no FLT3 mutations, IC50 (4 days)
pIC50: −log10 of the molar value.

* CCc1nc(C(N)=O)c(Nc2cccc(OCCCNC(=O)[C@H](C)N(C)C(=O)/C=C/CN(C)C)c2)nc1N(C)C(C)C | < 6.30
* C=CS(=O)(=O)NCC#Cc1cccc(Nc2nc(NC3CCOCC3)c(CC)nc2C(N)=O)c1 | < 6.30
* CC#CC(=O)NCC#Cc1cccc(Nc2nc(NC3CCOCC3)c(CC)nc2C(N)=O)c1 | < 6.30

Proceed to the following item.
Prompt: Could you please provide reported pIC50 for `C#CC(=O)NCCC#Cc1cccc(Nc2nc(NC3CCOCC3)c(CC)nc2C(N)=O)c1` ? Thanks!
Response: < 6.30
